Please respond with reported PBM E-score for every item in the list.
- Tested on: Caupolican (Caup) homeodomain DNA-binding domain
- Sequence: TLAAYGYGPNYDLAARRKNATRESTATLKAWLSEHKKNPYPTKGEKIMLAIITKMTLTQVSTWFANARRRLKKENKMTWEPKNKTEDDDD
- ASSAY_SUMMARY: PBM E-score (8-mer, recovered from the published 9-mer minima) (E-score (dimensionless, -0.5 to 0.5)); Drosophila protein; higher = stronger relative binding preference, active = 0.31 or more
Only a selection was taken, and hits are over-represented in it overall. The true hit rate is not given.

Please report PBM E-score for every entry that follows.
1. ATACGAAG
2. GCACATAA
3. AACATCAG
4. AACACGAC
5. AATCCGGC
6. CTGTACCA

1. 0.0288 (inactive)
2. 0.0651 (inactive)
3. 0.231 (inactive)
4. 0.321 (active)
5. -0.121 (inactive)
6. 0.186 (inactive)
